Cited source for all entries: paper PMC7819943

Target: OsWRKY34 (Oryza sativa, UniProt Q0JBA9 1-250)
Sequence (Q0JBA9 entry or part of it): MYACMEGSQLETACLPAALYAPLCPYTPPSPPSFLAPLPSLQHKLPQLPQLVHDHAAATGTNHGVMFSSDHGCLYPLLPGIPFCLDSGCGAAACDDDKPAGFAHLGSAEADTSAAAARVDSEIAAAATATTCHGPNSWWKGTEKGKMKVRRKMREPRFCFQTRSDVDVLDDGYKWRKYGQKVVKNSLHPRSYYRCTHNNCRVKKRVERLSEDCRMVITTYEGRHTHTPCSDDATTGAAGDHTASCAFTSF
Test: protein-binding microarray (RPBM); PBS, 2% BSA, 51.3 ng/ul salmon testes DNA, 50 uM zinc acetate, 200 nM TF, 25 C, 1 h; high values mean tight binding
Conditions: protein: recombinant; tags: N-terminal polyhistidine and DsRed monomer fusion (pET32a); label: CyDye5-dUTP incorporated in the synthesized complementary strand; 3' TTTTT single-stranded linker to array surface; dsDNA, one strand shown
In all, about 68,000 sequences were measured (“fluorescence intensity (a.u.)”: median about 9,100, highest 2% from about 16,000 on). The full list was thinned out, with the highest values kept by preference.
Each record here notes measured binding signal.

Answered cases to consult:
AATTCTATGCCTCGATACATTTTTGGTGTTTATTATGGTTCGGAGTCACCTAGTGCAG    8460 fluorescence intensity (a.u.)
ACGGTGGCGTTGTGCCCTGTGATGGTGTCCGCGTTGTGTCCGGAGTCACCTAGTGCAG    8990 fluorescence intensity (a.u.)
TTGGTGGCCTTTTCTCCCTTTTTTGCATGTGCTTTGCTCTCGGAGTCACCTAGTGCAG    14100 fluorescence intensity (a.u.)
CACCGCCGAACGCACGATTTCTTCCCGACGCTGTCACTTGCGGAGTCACCTAGTGCAG    8190 fluorescence intensity (a.u.)
TGTGATAGGCTTCAATGTTTAATCTCACCATCGATTGTTACGGAGTCACCTAGTGCAG    9500 fluorescence intensity (a.u.)
GGTGGGTAGTTTTCTGCGTTTTCTTTTGTATTTTTGGTTGCGGAGTCACCTAGTGCAG    11500 fluorescence intensity (a.u.)

Looking for the measured binding signal of TTTTGCTTATCATATCATATATTTTCTAAGCTTGATTTTTCGGAGTCACCTAGTGCAG , can you help? 8050 fluorescence intensity (a.u.)

Looking for the measured binding signal of GGGAAATTGGGTAATTAATTAATTATGTGAAAGGGGTGGGCGGAGTCACCTAGTGCAG , can you help? 12800 fluorescence intensity (a.u.)

Looking for the measured binding signal of TGGGAGGAGGGAGGGAGGAGGAGGGCGGAGATAGGTGGTGCGGAGTCACCTAGTGCAG , can you help? 11400 fluorescence intensity (a.u.)
